assay: Stented artery sirolimus concentration (Example 34); format: in vivo, porcine; conditions: pig, stented arterial tissue, other: coated stent implanted in coronary artery, 135 micrograms per stent; day 7; porcine; coated stent 135 micrograms sirolimus; read-out: Stented artery sirolimus concentration (tissue within stented segments)

{"Molecule": "CO[C@H]1C[C@@H]2CC[C@@H](C)[C@@](O)(O2)C(=O)C(=O)N2CCCC[C@H]2C(=O)O[C@H]([C@H](C)C[C@@H]2CC[C@@H](O)[C@H](OC)C2)CC(=O)[C@H](C)/C=C(\\C)[C@@H](O)[C@@H](OC)C(=O)[C@H](C)C[C@H](C)/C=C/C=C/C=C/1C [rapamycin]", "Readout unit": "ng/g", "concentration at 7 day": 42200}
